- target: Human immunodeficiency virus type 1 integrase (Human immunodeficiency virus 1, UniProt Q7ZJM1)
- Sequence (Q7ZJM1 whole entry): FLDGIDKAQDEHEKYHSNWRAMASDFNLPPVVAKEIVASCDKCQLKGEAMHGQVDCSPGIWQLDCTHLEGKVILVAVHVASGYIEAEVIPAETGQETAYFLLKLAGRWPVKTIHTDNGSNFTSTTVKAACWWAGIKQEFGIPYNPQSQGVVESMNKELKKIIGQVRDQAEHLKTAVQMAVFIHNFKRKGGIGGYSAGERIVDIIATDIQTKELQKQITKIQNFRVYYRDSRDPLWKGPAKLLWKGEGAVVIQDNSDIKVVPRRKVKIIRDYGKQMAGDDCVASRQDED
- testMethodNotes: Inhibition of HIV1 integrase 3'-end processing activity
pIC50: −log10 of the molar value.
recordedEndpoint: pIC50

Cc1nc2oc3ccccc3c(=O)c2cc1C(=O)CC(=O)C(=O)O	< 4.00
N#Cc1cccc(CN(Cc2cccc(C#N)c2)c2ccc3[nH]c(=O)c4ccccc4c3c2)c1	< 3.30
Cc1cc(C)c2[nH]c(=O)c3ccc(C#N)cc3c2c1	< 3.30

Reported pIC50, compound "O=C(Nc1ccc2[nH]c(=O)c3ccccc3c2c1)c1ccccc1" : ____
< 3.30

Entry "N#Cc1cccc(CNc2ccc3[nH]c(=O)c4ccccc4c3c2)c1" please
< 3.30
